Target: IL-23 (human, p19/p40 heterodimer) (Homo sapiens, UniProt Q9NPF7;P29460 SEQ:20-189,SEQ:23-328)
Sequence (Q9NPF7 20-189, chain 1 of 2): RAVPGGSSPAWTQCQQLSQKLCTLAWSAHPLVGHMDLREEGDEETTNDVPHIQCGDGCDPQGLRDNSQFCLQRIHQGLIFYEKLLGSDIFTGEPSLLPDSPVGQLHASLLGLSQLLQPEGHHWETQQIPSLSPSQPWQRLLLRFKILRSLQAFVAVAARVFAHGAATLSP
Sequence (P29460 23-328, chain 2 of 2): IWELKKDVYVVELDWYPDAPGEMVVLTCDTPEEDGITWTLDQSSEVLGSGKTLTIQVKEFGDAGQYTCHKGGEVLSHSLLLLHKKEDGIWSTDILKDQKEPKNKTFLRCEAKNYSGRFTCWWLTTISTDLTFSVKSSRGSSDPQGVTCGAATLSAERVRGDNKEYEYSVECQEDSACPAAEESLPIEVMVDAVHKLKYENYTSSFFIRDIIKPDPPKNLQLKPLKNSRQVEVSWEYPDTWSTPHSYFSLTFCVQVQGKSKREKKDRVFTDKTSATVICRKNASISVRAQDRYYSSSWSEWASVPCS
Test: filter; DPBS Ca Mg
Settings: tags: R&D Systems, carrier free
# Kd listing for each entry below
attribute.measured: Kd (nM)

>>> print(df.to_string())
                                     binder  experimental_result
0  rRmY clone SEQ 74 (ssRNA, 2'-OMe C,U) RNA: GGGAGAGGAGAGAACGUUCUACGGUAAAGCAGGCUGACUGAAAGGUUGAAGUCGCUGUCGAUCGAUCGAUCGAUG                  257
1  rRmY clone SEQ 86 (ssRNA, 2'-OMe C,U) RNA: GGGAGAGGAGAGAACGUUCUACUAAUGCAGGCUCAGUUACUACUGGAAGUCGCUGUCGAUCGAUCGAUCGAUG                  219
2  rRmY clone SEQ 72 (ssRNA, 2'-OMe C,U) RNA: GGGAGAGGAGAGAACGUUCUACAAAUGAGAGCAGGCCGAAAAGGAGUCGCUCGCUGUCGAUCGAUCGAUCGAUG                  211
